pEC50: recorded values
molecular target: T1, endogenous cell surface human MSLN (human, UniProt Q13421 296-598); experiment: flow cytometry, NCI-H226 cells + 20 nM soluble MSLN
T1 construct: whole, on cells; The cell line is named under assay; also called cell-surface MSLN on NCI-H226, OVCAR-3 and AsPC-1 cells
T1 sequence (Q13421 other isoform, or with tags, fused parts or gaps limits assumed): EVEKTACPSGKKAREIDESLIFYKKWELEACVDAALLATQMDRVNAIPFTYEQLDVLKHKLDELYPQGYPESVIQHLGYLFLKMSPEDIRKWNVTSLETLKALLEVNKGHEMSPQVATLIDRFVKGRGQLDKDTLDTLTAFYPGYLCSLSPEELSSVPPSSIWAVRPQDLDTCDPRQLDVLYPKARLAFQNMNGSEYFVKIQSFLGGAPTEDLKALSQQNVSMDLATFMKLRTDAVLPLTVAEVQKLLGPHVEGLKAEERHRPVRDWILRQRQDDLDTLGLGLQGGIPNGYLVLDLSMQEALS
On this scale, pEC50 is minus log10 of a concentration expressed in M (mol/L).

Find the recorded pEC50 belonging to FS22-172-003-AA/FS28-024 (bispecific antibody, human IgG1, kappa, L234A L235A, V domains shown, IgG1 mAb^2 with LALA; also called FS28-024 in CD137 mAb^2 format) VH: EVQLLESGGGLVQPGGSLRLSCAASGFTLSYSSMSWVRQAPGKGLEWVSFITPSTGYTHYADSVKGRFTISRDNSKNTLYLQMNSLRAEDTAVYYCARRALTFDYWGQGTLVTVSS VL: EIVLTQSPGTLSLSPGERATLSCRASQSVSSSYLAWYQQKPGQAPRLLIYGASSRATGIPDRFSGSGSGTDFTLTISRLEPEDFAVYYCQQASSYPLTFGQGTKVEIKR and report it.
8.52

Find the recorded pEC50 belonging to FS22-172-003-AA/FS28-256 (bispecific antibody, human IgG1, kappa, L234A L235A, V domains shown, IgG1 mAb^2 with LALA) VH: EVQLLESGGGLVQPGGSLRLSCAASGFTFTNTYMSWVRQAPGKGLEWVSNISPTYSTTNYADSVKGRFTISRDNSKNTLYLQMNSLRAEDTAVYYCARYNSYQGGLDYWGQGTLVTVSS VL: EIVLTQSPGTLSLSPGERATLSCRASQSVSSSYLAWYQQKPGQAPRLLIYGASSRATGIPDRFSGSGSGTDFTLTISRLEPEDFAVYYCQQSYYYPITFGQGTKVEIKR and report it.
7.28
